As shown below, each of these molecules has a reported Encapsulation efficiency (EE) value.
- protocol.details: Drug loading and encapsulation efficiency of drug loaded PNPs comprising pGlu(0.6C10)-PEG (HPLC)
- Format: physicochemical
- reported.conditions: study 2, PLA-PEG (A) 10 mg + pGlu-PEG (B) 10 mg, 5 mg drug
- Protocol: To assess the ability of pGlu(0.6C10)-PEG to load positively charged antibiotics in the form of PNPs, we selected vancomycin and RV94 as the antibiotic drug payload in a first study (study 1) (Table 5), and additionally included oritavancin and RV40 as the antibiotic drug payload in a second study (study 2) (Table 6). […] We prepared the drug loaded PNPs by using 20 mg of polymers and 5 mg of drug (FIG. 10). […] Drug loading in nanoparticle formulation was determined by HPLC with a WATERS™ T3 column. […]
measured.attribute: Encapsulation efficiency (EE) (%)

molecule	meas.value
CCCCCCCCCCNCCNC1(C)CC(OC2C(Oc3c4cc5cc3Oc3ccc(cc3Cl)C(O)C(NC(=O)C(CC(C)C)NC)C(=O)NC(CC(N)=O)C(=O)NC5C(=O)NC3C(=O)NC(C(=O)CC(C(=O)O)c5cc(O)cc(O)c5-c5cc3ccc5O)C(O)c3ccc(c(Cl)c3)O4)OC(CO)C(O)C2O)OC(C)C1O (stereo not drawn) [RV40]	33.2
CCCCCCCCCCNC(=O)CNC1(C)CC(OC2C(Oc3c4cc5cc3Oc3ccc(cc3Cl)C(O)C3NC(=O)C(NC(=O)C5NC(=O)C(CC(N)=O)NC(=O)C(NC(=O)C(CC(C)C)NC)C(O)c5ccc(c(Cl)c5)O4)c4ccc(O)c(c4)-c4c(O)cc(O)cc4C(C(=O)O)NC3=O)OC(CO)C(O)C2O)OC(C)C1O (stereo not drawn) [RV94]	59.8
CN[C@H](CC(C)C)C(=O)N[C@H]1C(=O)N[C@@H](CC(N)=O)C(=O)N[C@H]2C(=O)N[C@H]3C(=O)N[C@H](C(=O)N[C@H](C(=O)O)c4cc(O)cc(O)c4-c4cc3ccc4O)[C@H](O)c3ccc(c(Cl)c3)Oc3cc2cc(c3O[C@@H]2O[C@H](CO)[C@@H](O)[C@H](O)[C@H]2O[C@H]2C[C@](C)(N)[C@H](O)[C@H](C)O2)Oc2ccc(cc2Cl)[C@H]1O [Vac, vancomycin]	0.2

====

- protocol.details: Drug loading and encapsulation efficiency of drug loaded PNPs comprising pGlu(0.6C10)-PEG (HPLC)
- Format: physicochemical
- reported.conditions: study 2, PLA-PEG (A) 10 mg + pGlu-PEG (B) 10 mg, 5 mg drug

compound.string	unit.abbreviation	Encapsulation efficiency (EE)
CN[C@H](CC(C)C)C(=O)N[C@H]1C(=O)N[C@@H](CC(N)=O)C(=O)N[C@H]2C(=O)N[C@H]3C(=O)N[C@H](C(=O)N[C@H](C(=O)O)c4cc(O)cc(O)c4-c4cc3ccc4O)[C@H](O[C@H]3C[C@](C)(N)[C@@H](O)[C@H](C)O3)c3ccc(c(Cl)c3)Oc3cc2cc(c3O[C@@H]2O[C@H](CO)[C@@H](O)[C@H](O)[C@H]2O[C@H]2C[C@](C)(NCc3ccc(-c4ccc(Cl)cc4)cc3)[C@@H](O)[C@H](C)O2)Oc2ccc(cc2Cl)[C@H]1O	%	41.0

====

- protocol.details: Drug loading and encapsulation efficiency of drug loaded PNPs comprising pGlu(0.6C10) (HPLC)
- Assay type: physicochemical
- reported.conditions: PNP with PLA-PEG (A) 5 mg + pGlu (D) 5 mg, 2.5 mg drug

compound	Encapsulation efficiency (EE) (%)
CCCCCCCCCCNCCNC1(C)CC(OC2C(Oc3c4cc5cc3Oc3ccc(cc3Cl)C(O)C(NC(=O)C(CC(C)C)NC)C(=O)NC(CC(N)=O)C(=O)NC5C(=O)NC3C(=O)NC(C(=O)CC(C(=O)O)c5cc(O)cc(O)c5-c5cc3ccc5O)C(O)c3ccc(c(Cl)c3)O4)OC(CO)C(O)C2O)OC(C)C1O (stereo not shown) [RV40]	15.0
CN[C@H](CC(C)C)C(=O)N[C@H]1C(=O)N[C@@H](CC(N)=O)C(=O)N[C@H]2C(=O)N[C@H]3C(=O)N[C@H](C(=O)N[C@H](C(=O)O)c4cc(O)cc(O)c4-c4cc3ccc4O)[C@H](O[C@H]3C[C@](C)(N)[C@@H](O)[C@H](C)O3)c3ccc(c(Cl)c3)Oc3cc2cc(c3O[C@@H]2O[C@H](CO)[C@@H](O)[C@H](O)[C@H]2O[C@H]2C[C@](C)(NCc3ccc(-c4ccc(Cl)cc4)cc3)[C@@H](O)[C@H](C)O2)Oc2ccc(cc2Cl)[C@H]1O [Ori, oritavancin]	39.3
CN[C@H](CC(C)C)C(=O)N[C@H]1C(=O)N[C@@H](CC(N)=O)C(=O)N[C@H]2C(=O)N[C@H]3C(=O)N[C@H](C(=O)N[C@H](C(=O)O)c4cc(O)cc(O)c4-c4cc3ccc4O)[C@H](O)c3ccc(c(Cl)c3)Oc3cc2cc(c3O[C@@H]2O[C@H](CO)[C@@H](O)[C@H](O)[C@H]2O[C@H]2C[C@](C)(N)[C@H](O)[C@H](C)O2)Oc2ccc(cc2Cl)[C@H]1O [Vac, vancomycin]	0.1
CCCCCCCCCCNC(=O)CNC1(C)CC(OC2C(Oc3c4cc5cc3Oc3ccc(cc3Cl)C(O)C3NC(=O)C(NC(=O)C5NC(=O)C(CC(N)=O)NC(=O)C(NC(=O)C(CC(C)C)NC)C(O)c5ccc(c(Cl)c5)O4)c4ccc(O)c(c4)-c4c(O)cc(O)cc4C(C(=O)O)NC3=O)OC(CO)C(O)C2O)OC(C)C1O (stereo not shown) [RV94]	12.9

====

- protocol.details: Drug loading and encapsulation efficiency of drug loaded PNPs comprising pGlu(0.6C10) (HPLC)
- Format: physicochemical
- reported.conditions: PNP with PLA-PEG (A) 5 mg + pGlu (D) 5 mg, 2.5 mg drug
Catalogue of molecules with associated Drug loading

molecule	unit.abbreviation	Drug loading
CN[C@H](CC(C)C)C(=O)N[C@H]1C(=O)N[C@@H](CC(N)=O)C(=O)N[C@H]2C(=O)N[C@H]3C(=O)N[C@H](C(=O)N[C@H](C(=O)O)c4cc(O)cc(O)c4-c4cc3ccc4O)[C@H](O)c3ccc(c(Cl)c3)Oc3cc2cc(c3O[C@@H]2O[C@H](CO)[C@@H](O)[C@H](O)[C@H]2O[C@H]2C[C@](C)(N)[C@H](O)[C@H](C)O2)Oc2ccc(cc2Cl)[C@H]1O	%	0.0
CCCCCCCCCCNCCNC1(C)CC(OC2C(Oc3c4cc5cc3Oc3ccc(cc3Cl)C(O)C(NC(=O)C(CC(C)C)NC)C(=O)NC(CC(N)=O)C(=O)NC5C(=O)NC3C(=O)NC(C(=O)CC(C(=O)O)c5cc(O)cc(O)c5-c5cc3ccc5O)C(O)c3ccc(c(Cl)c3)O4)OC(CO)C(O)C2O)OC(C)C1O (stereo not shown)	%	3.1
CN[C@H](CC(C)C)C(=O)N[C@H]1C(=O)N[C@@H](CC(N)=O)C(=O)N[C@H]2C(=O)N[C@H]3C(=O)N[C@H](C(=O)N[C@H](C(=O)O)c4cc(O)cc(O)c4-c4cc3ccc4O)[C@H](O[C@H]3C[C@](C)(N)[C@@H](O)[C@H](C)O3)c3ccc(c(Cl)c3)Oc3cc2cc(c3O[C@@H]2O[C@H](CO)[C@@H](O)[C@H](O)[C@H]2O[C@H]2C[C@](C)(NCc3ccc(-c4ccc(Cl)cc4)cc3)[C@@H](O)[C@H](C)O2)Oc2ccc(cc2Cl)[C@H]1O	%	8.7
CCCCCCCCCCNC(=O)CNC1(C)CC(OC2C(Oc3c4cc5cc3Oc3ccc(cc3Cl)C(O)C3NC(=O)C(NC(=O)C5NC(=O)C(CC(N)=O)NC(=O)C(NC(=O)C(CC(C)C)NC)C(O)c5ccc(c(Cl)c5)O4)c4ccc(O)c(c4)-c4c(O)cc(O)cc4C(C(=O)O)NC3=O)OC(CO)C(O)C2O)OC(C)C1O (stereo not shown)	%	3.5

====

Recorded measurements of Encapsulation efficiency (EE), one per entry
- protocol.details: Drug loading and encapsulation efficiency of drug loaded PNPs comprising pGlu(0.6C10) (HPLC)
- Type: physicochemical
- reported.conditions: PNP with PLA-PEG (A) 5 mg + pGlu(0.6C10) (E) 5 mg, 2.5 mg drug
- Protocol: To assess the ability of pGlu(0.6C10) to load positively charged antibiotics in the form of PNPs, we selected vancomycin, oritavancin, RV40 and RV94 as the drug payload. Vancomycin was chosen as a non-lipoglycopeptide control and the other three payloads were lipoglycopeptides. […] We prepared the drug loaded PNPs by using 10 mg of polymers and 2.5 mg of drug (FIG. 4). […] Drug loading in nanoparticle formulation was determined by HPLC with a WATERS™ T3 column. […]
measured.attribute: Encapsulation efficiency (EE) (%)

compound	meas.value
CN[C@H](CC(C)C)C(=O)N[C@H]1C(=O)N[C@@H](CC(N)=O)C(=O)N[C@H]2C(=O)N[C@H]3C(=O)N[C@H](C(=O)N[C@H](C(=O)O)c4cc(O)cc(O)c4-c4cc3ccc4O)[C@H](O)c3ccc(c(Cl)c3)Oc3cc2cc(c3O[C@@H]2O[C@H](CO)[C@@H](O)[C@H](O)[C@H]2O[C@H]2C[C@](C)(N)[C@H](O)[C@H](C)O2)Oc2ccc(cc2Cl)[C@H]1O	0.5
CN[C@H](CC(C)C)C(=O)N[C@H]1C(=O)N[C@@H](CC(N)=O)C(=O)N[C@H]2C(=O)N[C@H]3C(=O)N[C@H](C(=O)N[C@H](C(=O)O)c4cc(O)cc(O)c4-c4cc3ccc4O)[C@H](O[C@H]3C[C@](C)(N)[C@@H](O)[C@H](C)O3)c3ccc(c(Cl)c3)Oc3cc2cc(c3O[C@@H]2O[C@H](CO)[C@@H](O)[C@H](O)[C@H]2O[C@H]2C[C@](C)(NCc3ccc(-c4ccc(Cl)cc4)cc3)[C@@H](O)[C@H](C)O2)Oc2ccc(cc2Cl)[C@H]1O	60.6
CCCCCCCCCCNCCNC1(C)CC(OC2C(Oc3c4cc5cc3Oc3ccc(cc3Cl)C(O)C(NC(=O)C(CC(C)C)NC)C(=O)NC(CC(N)=O)C(=O)NC5C(=O)NC3C(=O)NC(C(=O)CC(C(=O)O)c5cc(O)cc(O)c5-c5cc3ccc5O)C(O)c3ccc(c(Cl)c3)O4)OC(CO)C(O)C2O)OC(C)C1O (stereo not shown)	100.7
CCCCCCCCCCNC(=O)CNC1(C)CC(OC2C(Oc3c4cc5cc3Oc3ccc(cc3Cl)C(O)C3NC(=O)C(NC(=O)C5NC(=O)C(CC(N)=O)NC(=O)C(NC(=O)C(CC(C)C)NC)C(O)c5ccc(c(Cl)c5)O4)c4ccc(O)c(c4)-c4c(O)cc(O)cc4C(C(=O)O)NC3=O)OC(CO)C(O)C2O)OC(C)C1O (stereo not shown)	107.2
